I'd appreciate it if you could supply Long-term stability, 6 weeks, 4°C, without daylight Accuracy [%] values for the items below.
experimental.protocol: Long-term stability in spiked pooled human plasma
condition.context: validation standard ULOV
Answers are plain numbers, in %.

Here is how some molecules turned out for Long-term stability, 6 weeks, 4°C, without daylight Accuracy [%].
[Q] Field request: Long-term stability, 6 weeks, 4°C, without daylight Accuracy [%] | item: COc1cc2nccc(Oc3ccc(NC(=O)NC4CC4)c(Cl)c3)c2cc1C(N)=O
[A] 101.9

[Q] Field request: Long-term stability, 6 weeks, 4°C, without daylight Accuracy [%] | item: CC(C)(C)c1nc(-c2cccc(NS(=O)(=O)c3c(F)cccc3F)c2F)c(-c2ccnc(N)n2)s1
[A] 100.6

[Q] Field request: Long-term stability, 6 weeks, 4°C, without daylight Accuracy [%] | item: CN(C)C/C=C/C(=O)Nc1cc2c(Nc3ccc(F)c(Cl)c3)ncnc2cc1O[C@H]1CCOC1
[A] 37.3

[Q] Field request: Long-term stability, 6 weeks, 4°C, without daylight Accuracy [%] | item: CCc1cc2c(cc1N1CCC(N3CCOCC3)CC1)C(C)(C)c1[nH]c3cc(C#N)ccc3c1C2=O
[A] 86.5

[Q] Field request: Long-term stability, 6 weeks, 4°C, without daylight Accuracy [%] | item: Cc1cc(Nc2ncc(Cl)c(Nc3ccccc3S(=O)(=O)C(C)C)n2)c(OC(C)C)cc1C1CCNCC1
[A] 97.9

[Q] Field request: Long-term stability, 6 weeks, 4°C, without daylight Accuracy [%] | item: Cc1ccc(C(=O)Nc2ccc(CN3CCN(C)CC3)c(C(F)(F)F)c2)cc1C#Cc1cnc2cccnn12
[A] 89.4

[Q] Field request: Long-term stability, 6 weeks, 4°C, without daylight Accuracy [%] | item: C#Cc1cccc(Nc2ncnc3cc(OCCOC)c(OCCOC)cc23)c1
[A] 103.7

[Q] Field request: Long-term stability, 6 weeks, 4°C, without daylight Accuracy [%] | item: COC(=O)N[C@@H](C)CNc1nccc(-c2cn(C(C)C)nc2-c2cc(Cl)cc(NS(C)(=O)=O)c2F)n1
[A] 101.7

[Q] Field request: Long-term stability, 6 weeks, 4°C, without daylight Accuracy [%] | item: COc1cc2c(Nc3ccc(Br)cc3F)ncnc2cc1OCC1CCN(C)CC1
[A] 93.5

[Q] Field request: Long-term stability, 6 weeks, 4°C, without daylight Accuracy [%] | item: COc1cc2ncnc(Nc3ccc(F)c(Cl)c3)c2cc1NC(=O)/C=C/CN1CCCCC1
[A] 77.8

Please give Long-term stability, 6 weeks, 4°C, without daylight Accuracy [%], item by item, for the list that follows.
1. NC(=O)c1cccc2cn(-c3ccc([C@@H]4CCCNC4)cc3)nc12
2. CC1(C)CCC(CN2CCN(c3ccc(C(=O)NS(=O)(=O)c4ccc(NCC5CCOCC5)c([N+](=O)[O-])c4)c(Oc4cnc5[nH]ccc5c4)c3)CC2)=C(c2ccc(Cl)cc2)C1
3. CNC(=O)c1ccccc1Sc1ccc2c(/C=C/c3ccccn3)n[nH]c2c1
4. CNCc1ccc(-c2[nH]c3cc(F)cc4c3c2CCNC4=O)cc1
5. O=c1[nH]c(=O)n([C@H]2C[C@H](O)[C@@H](CO)O2)cc1C(F)(F)F
6. CNC(=O)c1cc(Oc2ccc(NC(=O)Nc3ccc(Cl)c(C(F)(F)F)c3)cc2)ccn1
7. Cc1c(C(=O)Nc2ccc(N3C[C@@H](C)O[C@@H](C)C3)nc2)cccc1-c1ccc(OC(F)(F)F)cc1

[A]
96.4
95.2
91.2
100.2
27.1
99.7
100.7

Please give Long-term stability, 6 weeks, 4°C, without daylight Accuracy [%], item by item, for the list that follows.
1. Cc1ccc(NC(=O)c2ccc(CN3CCN(C)CC3)cc2)cc1Nc1nccc(-c2cccnc2)n1
2. Cc1[nH]c2ccccc2c1CCNCc1ccc(/C=C/C(=O)NO)cc1

[A]
1. 89.8
2. 79.4

Please give Long-term stability, 6 weeks, 4°C, without daylight Accuracy [%], item by item, for the list that follows.
1. Cc1cn(-c2cc(NC(=O)c3ccc(C)c(Nc4nccc(-c5cccnc5)n4)c3)cc(C(F)(F)F)c2)cn1
2. COC(=O)c1ccc2c(c1)NC(=O)/C2=C(\Nc1ccc(N(C)C(=O)CN2CCN(C)CC2)cc1)c1ccccc1

[A]
1. 98.0
2. 85.9

Where these numbers come from: paper PMC8699473
